Hey, just so you know, these numbers are from ChEMBL document CHEMBL3286232.

# Tested on: HT-29
# experimentNotes: Anti-austerity antiproliferative activity against nutrient-deprived human HT-29 cells after 72 hrs in presence of 0.5% serum
# Assay type: functional, cell-based
# experimentalContext: HT-29, 72 h
pIC50: −log10 of the molar value.
reportedEndpoint: pIC50

{"smilesString": "COc1ccc(C(=O)OC[C@@]2(O)C(=O)C=C[C@H]3[C@@H]2[C@H]2C=C[C@@H]3C(=O)[C@]2(O)COC(=O)c2ccc(OC)cc2)cc1", "pIC50": 4.66}
{"smilesString": "O=C(OC[C@@]1(O)C(=O)C=C[C@H]2[C@@H]1[C@H]1C=C[C@@H]2C(=O)[C@]1(O)COC(=O)c1ccc(Cl)cc1)c1ccc(Cl)cc1", "pIC50": 4.74}
{"smilesString": "O=C(OC[C@@]1(O)C(=O)CC[C@H]2[C@@H]1[C@H]1CC[C@@H]2C(=O)[C@]1(O)COC(=O)c1ccccc1)c1ccccc1", "pIC50": 4.57}

---

# Test system: HT-29
# experimentNotes: Anti-austerity antiproliferative activity against human HT-29 cells after 72 hrs in presence of 10 % serum
# Type: cell-based
# experimentalContext: HT-29, 72 h
reportedEndpoint: IC50 (µM)

P. O=C(OC[C@@]1(O)C(=O)C=C[C@H]2[C@@H]1[C@H]1C=C[C@@H]2C(=O)[C@]1(O)COC(=O)c1ccccc1)c1ccccc1
Q. O=C(OC[C@@]1(O)C(=O)C=C[C@H]2[C@@H]1[C@H]1C=C[C@@H]2C(=O)[C@]1(O)COC(=O)c1ccc(Cl)cc1)c1ccc(Cl)cc1
**Query** Given P and given Q , which shows the smaller recorded IC50? Write down the label attached to your selection.
**Result** Q
(Q: 39 µM, P: 109 µM)
